- Tested on: Rattus norvegicus
- ASSAY: AUMC in Sprague-Dawley rat assessed as L-dopa level at 0.332 mmol/kg, po
- Format: ADME, organism-based
- CONDITION SUMMARY: in vivo
Where a SMILES comes first, the peptide text is derived from it. [ ]: non-standard residue; d: D form. Dopa = N[C@@H](Cc1ccc(O)c(O)c1)C(=O)O
OBSERVABLE: AUMC (ug/ml.hr'2)

N[C@@H](Cc1ccc(O)c(O)c1)C(=O)O = 1053.92

[1] COC(=O)[C@H](Cc1ccc(O)c(O)c1)NC(=O)[C@H](CCSC)NC(C)=O (Ac-Met-[Dopa]-OMe)
[2] COC(=O)[C@H](Cc1ccc(O)c(O)c1)NC(=O)[C@H](CS)NC(=O)C(C)(C)S
[3] COC(=O)[C@H](CCSC)NC(=O)[C@H](Cc1ccc(O)c(O)c1)NC(C)=O (Ac-[Dopa]-Met-OMe)
[4] COC(=O)[C@H](CS)NC(=O)[C@H](Cc1ccc(O)c(O)c1)NC(C)=O (Ac-[Dopa]-Cys-OMe)
Q) Put these in order: smallest AUMC first, largest last. Answer with the labels in sequence, matching the requested order.
A) 4, 2, 3, 1
(4: 1053.36 ug/ml.hr'2, 2: 4056.32 ug/ml.hr'2, 3: 6844.84 ug/ml.hr'2, 1: 12319.3 ug/ml.hr'2)

[1] COC(=O)[C@H](Cc1ccc(O)c(O)c1)NC(=O)[C@H](CS)NC(=O)[C@@H](CS)NC(C)=O
[2] COC(=O)[C@H](Cc1ccc(O)c(O)c1)NC(=O)[C@H](CS)NC(C)=O (Ac-Cys-[Dopa]-OMe)
Q) From the items above, decide which of 1 and 2 has the lower AUMC reading. # answer = label of selected item
A) 2
(2: 1673.2 ug/ml.hr'2, 1: 3608.38 ug/ml.hr'2)
